What MIC was measured for each of the following?
system: Klebsiella; assay: In vitro antibacterial activity, dilution in Mueller Hinton Agar (Table I); type: cell-based; details: pH 7.4, strain 121, Mueller Hinton Agar pH 7.4
One number for each entry, in µg/mL.

STRUCTURE AS SMILES | MEASUREMENT KIND | OBSERVED MEASUREMENT
NCc1[nH]c2ccc(Cl)cc2c1-c1c(F)cccc1F | MIC | 17.5
NCc1[nH]c2ccc(Cl)cc2c1-c1ccccc1F | MIC | 7.5
NCc1[nH]c2ccc(Cl)cc2c1-c1ccc(Cl)cc1Cl | MIC | 7.5
NCc1[nH]c2ccc(Cl)cc2c1-c1ccccc1 | MIC | 3

With those in mind, consider the next compound.
What does the data say about its MIC? Entry: `NCc1[nH]c2cc(Br)c(Cl)cc2c1-c1ccccc1`
3

====

test system: Pseudomonas acruginosa; assay: In vitro antibacterial activity, dilution in Mueller Hinton Agar (Table I); assay type: cell-based; conditions: pH 7.4, strain Trav. 1, Mueller Hinton Agar pH 7.4
Kindly supply the reported MIC values for the records listed here.
Numbers only, in µg/mL.

STRUCTURE AS SMILES | MIC [µg/mL]
NCc1[nH]c2ccc(Cl)cc2c1-c1ccc(Cl)cc1Cl | 17.5

Can you give me MIC for all of these, one by one?
1. NCc1[nH]c2ccc(Cl)cc2c1-c1c(F)cccc1F
2. NCc1[nH]c2ccc(Cl)cc2c1-c1ccccc1F
3. NCc1[nH]c2ccc(Cl)cc2c1-c1ccccc1
4. NCc1[nH]c2cc(Br)c(Cl)cc2c1-c1ccccc1

1: 17.5; 2: 17.5; 3: 17.5; 4: 7.5

====

system: Candida albicans; assay: In vitro Anti-Candida activity, dilutions in Sabouraud's Dextrose Agar (Table III); type: cell-based; conditions: 48 h, strain Bertrand, after 48 hours
MEASUREMENT KIND: MIC (µg/mL)
Give bare numbers, in µg/mL.

Give me MIC for each of these compounds, listed below.
1. NCc1[nH]c2ccc(Cl)cc2c1-c1ccccc1F [A]
2. NCc1[nH]c2ccc(Cl)cc2c1-c1c(F)cccc1F [B]
3. NCc1[nH]c2ccc(Cl)cc2c1-c1ccccc1 [C]
4. NCc1[nH]c2ccc(Cl)cc2c1-c1ccc(Cl)cc1Cl [E]
5. NCc1[nH]c2cc(Br)c(Cl)cc2c1-c1ccccc1 [D]

1: 75; 2: 150; 3: 75; 4: 37.5; 5: 150

====

tested on: Staphylococcus aureus; experiment: In vitro antibacterial activity, dilution in Mueller Hinton Agar (Table I); assay type: cell-based; details: pH 7.4, strain 59N, Mueller Hinton Agar pH 7.4
MEASUREMENT KIND: MIC (µg/mL)
Answers are plain numbers, in µg/mL.

Answered examples (3):
STRUCTURE AS SMILES | MIC [µg/mL]
NCc1[nH]c2ccc(Cl)cc2c1-c1ccc(Cl)cc1Cl | 3
NCc1[nH]c2ccc(Cl)cc2c1-c1ccccc1 | 7.5
NCc1[nH]c2ccc(Cl)cc2c1-c1c(F)cccc1F | 7.5

For each of the items listed, what is its MIC?
1. NCc1[nH]c2cc(Br)c(Cl)cc2c1-c1ccccc1
2. NCc1[nH]c2ccc(Cl)cc2c1-c1ccccc1F

1. 3
2. 3

====

tested on: Klebsiella; assay: In vitro antibacterial activity, dilution in Mueller Hinton Agar (Table I); format: cell-based; conditions: pH 7.4, strain 3020, Mueller Hinton Agar pH 7.4
Exercise: for every item that follows, state its recorded MIC.
Numbers only, in µg/mL.

Okay, here is my list. What is MIC for each of these?
1. NCc1[nH]c2ccc(Cl)cc2c1-c1ccccc1
2. NCc1[nH]c2ccc(Cl)cc2c1-c1ccc(Cl)cc1Cl
3. NCc1[nH]c2ccc(Cl)cc2c1-c1c(F)cccc1F
4. NCc1[nH]c2cc(Br)c(Cl)cc2c1-c1ccccc1
5. NCc1[nH]c2ccc(Cl)cc2c1-c1ccccc1F

1. 3
2. 3
3. 7.5
4. 3
5. 7.5
